# TEST TARGET: N-His-Tb-BIR3(241-356, XIAP) (Homo sapiens, UniProt P98170)
# Sequence (P98170 241-356): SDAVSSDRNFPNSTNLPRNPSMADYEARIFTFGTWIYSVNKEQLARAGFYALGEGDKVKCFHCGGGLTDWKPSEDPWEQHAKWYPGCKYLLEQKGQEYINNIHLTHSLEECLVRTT
# ASSAY NAME: XIAP-BIR3 SMAC Peptide Fluorescence Polarization Assay (FPA)
# Format: binding
Would you mind telling me the reported IC50 of each entry?

Query: Given the entry CN[C@@H](C)C(=O)N[C@H](C(=O)N1C[C@@H]2C[C@H]1C(=O)N[C@@H](Cc1ccc(OCc3ccccc3)cc1)C(=O)N[C@H](C(=O)O)Cc1ccc(cc1)COc1cn(nn1)[C@H]1C[C@@H](C(=O)N[C@@H](Cc3ccc(OCc4ccccc4)cc3)C(=O)N[C@H](C(=O)O)Cc3ccc(cc3)OCc3cn2nn3)N(C(=O)[C@@H](NC(=O)[C@H](C)NC)C(C)C)C1)C(C)C , what IC50 was observed with N-His-Tb-BIR3(241-356, XIAP) (Homo sapiens, UniProt P98170)?
Response: < 0.05 µM

Query: What do you have for CCS(=O)(=O)NC(=O)[C@@H]1Cc2ccc(cc2)OCc2cn(nn2)[C@H]2C[C@@H](C(=O)N[C@@H](Cc3ccc4ccccc4c3)C(=O)N[C@H](C(=O)NS(=O)(=O)CC)Cc3ccc(cc3)OCc3cn(nn3)[C@H]3C[C@@H](C(=O)N[C@@H](Cc4ccc5ccccc5c4)C(=O)N1)N(C(=O)[C@@H](NC(=O)[C@H](C)NC)C(C)(C)C)C3)N(C(=O)[C@@H](NC(=O)[C@H](C)NC)C(C)(C)C)C2 ?
Response: < 0.05 µM

Query: What do you have for CN[C@@H](C)C(=O)N[C@H](C(=O)N1C[C@@H]2C[C@H]1C(=O)N[C@@H](Cc1ccc(OC)c(OC)c1)C(=O)N[C@H](C(=O)O)Cc1ccc(cc1)OCc1cn(nn1)[C@H]1C[C@@H](C(=O)N[C@@H](Cc3ccc(OC)c(OC)c3)C(=O)N[C@H](C(=O)O)Cc3ccc(cc3)OCc3cn2nn3)N(C(=O)[C@@H](NC(=O)[C@H](C)NC)C(C)(C)C)C1)C(C)(C)C ?
Response: > 0.1 µM

src = patent US20140309265A1
